tested on: ACHN; test: NCI tumour cell line growth inhibition, 48 h
The source made the active and inactive calls. No stated cut-off is given here; in the data, active = GI50 up to about 1.1 µM and inactive = higher.
Labels: active, inactive

[
  {
    "COMPOUND": "CCOc1ccc(NC(=O)/C=C/c2ccco2)cc1",
    "CLASSIFICATION": "inactive"
  },
  {
    "COMPOUND": "CC[C@H](CO)Nc1nc(NCc2ccccc2)c2ncn(C(C)C)c2n1",
    "CLASSIFICATION": "inactive"
  },
  {
    "COMPOUND": "CC(C)(C)OC(=O)N(CCCCNCc1ccc2ccccc2c1)CCCNCc1ccc2ccccc2c1",
    "CLASSIFICATION": "inactive"
  },
  {
    "COMPOUND": "Cc1[nH]n(-c2nc(-c3ccccc3)cc(=O)[nH]2)c(=O)c1CCO",
    "CLASSIFICATION": "inactive"
  },
  {
    "COMPOUND": "COc1cc(Nc2cc(Cl)cc(Cl)c2)nc(N)n1",
    "CLASSIFICATION": "inactive"
  },
  {
    "COMPOUND": "Cc1c(-c2ccc(-c3ccccc3F)cc2)nc2ccc(F)cc2c1C(=O)O [BREQUINAR SODIUM]",
    "CLASSIFICATION": "active"
  },
  {
    "COMPOUND": "O=C1/C(=C/c2cccs2)NC(=S)N1CN1CCCC(CO)C1 (stereo not drawn)",
    "CLASSIFICATION": "inactive"
  },
  {
    "COMPOUND": "COC(c1cccc(C(O)(C(F)(F)F)C(F)(F)F)c1)(C(F)(F)F)C(F)(F)F",
    "CLASSIFICATION": "inactive"
  },
  {
    "COMPOUND": "CCN1CCC(O)(/C=C/c2ccc(Cl)cc2)C(C(=O)/C=C/c2ccc(Cl)cc2)C1 (stereo not drawn)",
    "CLASSIFICATION": "inactive"
  },
  {
    "COMPOUND": "C[NH+]1[C@@H](Cc2ccccc2)C(=O)O[B-]1(F)c1ccccc1 (stereo partly drawn)",
    "CLASSIFICATION": "inactive"
  },
  {
    "COMPOUND": "Cc1ccc(C2(c3ccc(Cl)cc3)c3ccccc3C3=NCCN32)cc1 (stereo not drawn)",
    "CLASSIFICATION": "inactive"
  },
  {
    "COMPOUND": "C[n+]1ccn2c3nc4ccccc4nc3c([O-])c(C#N)c21",
    "CLASSIFICATION": "inactive"
  },
  {
    "COMPOUND": "Cc1cc(S(=O)(=O)Nc2nc(-c3ccccn3)n[nH]2)c(S)cc1Cl",
    "CLASSIFICATION": "inactive"
  },
  {
    "COMPOUND": "Fc1ccc(Nc2nc(Cl)c3nc[nH]c3n2)cc1Cl",
    "CLASSIFICATION": "inactive"
  },
  {
    "COMPOUND": "O=c1oc2ccc(Cl)cc2cc1-c1cn2cc(Cl)ccc2n1",
    "CLASSIFICATION": "inactive"
  },
  {
    "COMPOUND": "O=C(O)c1cscc1Cc1cccs1",
    "CLASSIFICATION": "inactive"
  },
  {
    "COMPOUND": "CC(C)(C)c1ccc(O)c(CN(Cc2cc(C(C)(C)C)ccc2O)c2ccccc2)c1",
    "CLASSIFICATION": "inactive"
  },
  {
    "COMPOUND": "N/C(=N\\Nc1cccc(Cl)c1)c1cccnc1",
    "CLASSIFICATION": "inactive"
  },
  {
    "COMPOUND": "COc1cc2c(c(OC)c1OC)-c1ccc(OC)c(=O)cc1[C@@H](N(C)C=O)CC2",
    "CLASSIFICATION": "active"
  },
  {
    "COMPOUND": "CC(=O)N1C(=O)c2cc3ccccc3cc21",
    "CLASSIFICATION": "inactive"
  },
  {
    "COMPOUND": "O=C1NC2(CCNCC2)Oc2ccccc21",
    "CLASSIFICATION": "inactive"
  },
  {
    "COMPOUND": "CC(=O)OC(C)c1cc2c(s1)C(=O)c1sccc1C2=O (stereo not drawn)",
    "CLASSIFICATION": "inactive"
  },
  {
    "COMPOUND": "C(=N\\OCc1ccccc1)/c1ncccc1C1OCCO1",
    "CLASSIFICATION": "inactive"
  },
  {
    "COMPOUND": "CCCCCCCN(CCCCCCC)CC(O)c1cc2ccccc2c2cc(Br)ccc12 (stereo not drawn)",
    "CLASSIFICATION": "inactive"
  },
  {
    "COMPOUND": "Cc1cc(C)c(N[S+]([O-])c2cccc(C(F)(F)F)c2)c(C)c1 (stereo not drawn)",
    "CLASSIFICATION": "inactive"
  },
  {
    "COMPOUND": "COc1ccc(C(SCCO)(c2ccc(OC)cc2)c2ccc(OC)cc2)cc1",
    "CLASSIFICATION": "inactive"
  },
  {
    "COMPOUND": "Nc1nc(SCC(=O)O)nc(O)c1N",
    "CLASSIFICATION": "inactive"
  },
  {
    "COMPOUND": "Cc1cc(OCc2nn(CN3CCN(C)CC3)c(=S)n2/N=C/c2ccc(-c3ccc(Cl)cc3Cl)o2)ccc1Cl",
    "CLASSIFICATION": "inactive"
  }
]

###

Each entry below carries its reported GI50.
tested on: NCI-H23; assay: NCI tumour cell line growth inhibition, 48 h
Active and inactive are the calls of the source. Rule as the data show it: active = GI50 up to about 1.1 µM and inactive = higher.

[
  {
    "MOLECULAR_STRING": "CCCCC#C[I+]c1ccccc1",
    "GI50": "13.6 µM (inactive)"
  },
  {
    "MOLECULAR_STRING": "CSc1nc(SC)c2c(C)cn(COCCOC(=O)c3ccccc3)c2n1",
    "GI50": "> 100 µM (inactive)"
  },
  {
    "MOLECULAR_STRING": "Cc1ccc(SCN2CCCCC2)cc1.O=C(Cl)c1ccc([N+](=O)[O-])cc1",
    "GI50": "8.22 µM (inactive)"
  }
]

###

Each entry below carries its reported GI50.
test system: XF498; test: NCI tumour cell line growth inhibition, 48 h
Activity calls are given as the source filed them. Rule as the data show it: active = GI50 up to about 1.1 µM and inactive = higher.

[
  {
    "COMPOUND": "C=C(C(=C)P(=S)(c1ccccc1)c1ccccc1)P(=S)(c1ccccc1)c1ccccc1",
    "SYSTEM_UNDER_TEST": "XF498",
    "GI50": "73.6 µM (inactive)"
  },
  {
    "COMPOUND": "C=C1CCCC2OC(OC)CCC12 (stereo unspecified)",
    "SYSTEM_UNDER_TEST": "XF498",
    "GI50": "> 100 µM (inactive)"
  },
  {
    "COMPOUND": "Cc1nc(=O)n2c(c1C(=O)Nc1ccc(Cl)cc1)NCCC2",
    "SYSTEM_UNDER_TEST": "XF498",
    "GI50": "> 100 µM (inactive)"
  },
  {
    "COMPOUND": "O=C(CCc1nnc(S)[nH]1)Nc1cccc(C(F)(F)F)c1",
    "SYSTEM_UNDER_TEST": "XF498",
    "GI50": "> 100 µM (inactive)"
  },
  {
    "COMPOUND": "O=C1CSC(Cc2nc3ccccc3[nH]2)=N1",
    "SYSTEM_UNDER_TEST": "XF498",
    "GI50": "20.4 µM (inactive)"
  },
  {
    "COMPOUND": "COC(=O)C12CC(c3ccccc31)C1C(=O)OC(=O)C12 (stereo unspecified)",
    "SYSTEM_UNDER_TEST": "XF498",
    "GI50": "> 100 µM (inactive)"
  },
  {
    "COMPOUND": "COC(=O)NN1C(C)=C(C(=O)OC)C2(C#N)C(C(=O)OC)=C(C)N(NC(=O)OC)C12N (stereo unspecified)",
    "SYSTEM_UNDER_TEST": "XF498",
    "GI50": "> 100 µM (inactive)"
  },
  {
    "COMPOUND": "c1ccc2c(c1)N=C(c1ccc3ccccc3c1)CC(c1cccc3ccccc13)S2 (stereo unspecified)",
    "SYSTEM_UNDER_TEST": "XF498",
    "GI50": "35 µM (inactive)"
  },
  {
    "COMPOUND": "C[n+]1ccn2c3nc4ccccc4nc3c([O-])c(C#N)c21",
    "SYSTEM_UNDER_TEST": "XF498",
    "GI50": "> 100 µM (inactive)"
  },
  {
    "COMPOUND": "N#CC(OC1OC(COC2OC(CO)C(O)C(O)C2O)C(O)C(O)C1O)c1ccccc1 (stereo unspecified)",
    "SYSTEM_UNDER_TEST": "XF498",
    "GI50": "> 225 µM (inactive)"
  },
  {
    "COMPOUND": "O=C1NP23(OCCO2)Oc2ccccc2C3(C(F)(F)F)O1 (stereo unspecified)",
    "SYSTEM_UNDER_TEST": "XF498",
    "GI50": "> 100 µM (inactive)"
  }
]
